assayed system: Follistatin-related protein 3 (Homo sapiens)
measurement protocol: FSTL3 binders on small-molecule microarrays, primary screen, biochemical, small-molecule microarray, 635 nm fluorescence (AID 1105);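 also: score merges emission near 667 nm and signal to noise per printed spot across three slides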
run parameters: FSTL3 binding, higher = more signal
# binarize composite z-score: threshold -0.5 inclusive, high side True, low side False

| compound | qualitative label |
| --- | --- |
| C=C[C@H](CO[Si](CC)(CC)CC)N(Cc1ccc(OC(C)=O)c(OC)c1)S(=O)(=O)c1ccc(Br)cc1 | True |
| CC(C)(C)OC(=O)CC[C@]1(C(=O)N2CCOCC2)N=C(c2ccc(OCCCO)cc2)O[C@H]1c1ccccc1N=[N+]=[N-] | True |

Determine whether measured composite z-score meets or exceeds -0.5 for COC(=O)[C@@]1(Cc2ccc(F)cc2)[C@H]2c3cc(C(=O)N(C)C)n(Cc4ccccc4)c3C[C@H]2CN1C(=O)c1ccccc1 True

// same read-out, input: COC(=O)[C@@]1(Cc2ccccc2)N=C(c2ccc(OCCCO)cc2)O[C@H]1c1ccccc1 False

What do you have for C=CCC(OC(C)=O)[C@@H]1[C@@H](N(Cc2ccc(-c3cccc(C(F)(F)F)c3)o2)C(=O)c2ccc(C)cc2)c2cc(OCCCO)ccc2N1C(=O)Cc1ccc2ccccc2c1 (some centres not stated) ? True

Moving on to O=C1C2C=CC(C(O)c3cc(C(F)(F)F)cc(C(F)(F)F)c3)N(n3cnnc3)C2C(=O)N1Cc1ccccc1 (configuration not stated) True

Another: [N-]=[N+]=NCc1ccccc1[C@@H]1OC(c2ccc(OCCCO)cc2)=N[C@]1(Cc1ccccc1)C(=O)NCC(O)CO (some centres not stated) False

###

measurement protocol: HepG2 cell viability effects, profiling panel, calcein-AM fluorescence, 48 h, basal (AID 1164)
run parameters: higher = more signal
Consider the following molecules; for each one, report its z-score.
One number for each entry.

| molecule | result type | observed result |
| --- | --- | --- |
| COc1cc(COC(C)=O)ccc1OC(C)=O | z-score | 1.5 |
| [N-]=[N+]=Nc1ccccc1[C@@H]1OC(c2ccc(OCCCO)cc2)=N[C@]1(CCS(=O)(=O)c1ccccc1)C(N)=O | z-score | -0.554 |
| NC(=O)NCC#Cc1ccc2c(c1)[C@]1(C(=O)N2)[C@H](C(=O)Nc2nc3ccccc3s2)[C@H]2C(=O)O[C@H](c3ccccc3)[C@H](c3ccccc3)N2[C@@H]1c1ccccc1OCCO | z-score | 0.374 |

Go through the items and report each one's z-score.
1. C=C(CCCC)C(=O)CC[C@@H](OC(=O)c1ccccc1-c1ccccc1C(=O)O)c1ccc(OCCO)cc1
2. COCCOC(=O)N1C(=O)[C@@]2(c3cc(C#CCNC(N)=O)ccc31)[C@H](C(=O)Nc1nc3ccccc3s1)[C@H]1C(=O)O[C@H](c3ccccc3)[C@H](c3ccccc3)N1[C@@H]2c1ccc(OCCO)cc1
3. COc1cc(Br)cc(C(O)C2C=CC3C(=O)N(C)C(=O)C3N2N2CCCCC2)c1OC (stereo not given)

[0.515, -1.22, -0.315]

###

Exercise: for every item that follows, state its recorded composite z-score.
System: Plasmodium falciparum Sir2 (PF13_0152, Sir2A)
measurement protocol: pfSir2 binders on small-molecule microarrays, primary screen, biochemical, small-molecule microarray, 635 nm fluorescence (AID 1098);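 also: score merges spot fluorescence intensity with its signal-to-noise ratio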
run parameters: small-molecule microarray binding, fluorescence 635 nm; higher = more signal
Numbers only.

Known results for molecules:
| molecule | result type | observed result |
| --- | --- | --- |
| COC(=O)C(CC#Cc1ccc2c(c1)[C@]1(C(=O)N2)[C@H](c2ccc(OCCO)cc2)N2[C@H](c3ccccc3)[C@H](c3ccccc3)OC(=O)[C@H]2[C@@H]1C(=O)Nc1nc2ccccc2s1)C(=O)OC | composite z-score | 0.842 |
| O=C(NCCO)C1=C[C@H](Oc2ccccc2I)[C@@H](O)[C@H](N(Cc2ccco2)C(=O)Cc2ccccc2)C1 | composite z-score | -0.012 |
| COCCCNC(=O)[C@]1(CCC(=O)OC(C)(C)C)N=C(c2ccc(OCCCO)cc2)O[C@@H]1c1ccccc1CN=[N+]=[N-] | composite z-score | 1.42 |
| CCCC[C@@H]1C[C@H]1[C@@H](NC(=O)c1ccco1)c1ccccc1C(F)(F)F | composite z-score | -0.323 |
| COC(=O)[C@@]1(CCS(=O)(=O)c2ccccc2)N=C(c2ccc(OCCCO)cc2)O[C@H]1c1ccccc1CN=[N+]=[N-] | composite z-score | 1.21 |

Please state composite z-score for every molecule in the list that follows.
1. COC(=O)[C@H](Cc1ccccc1)N[C@@H](/C=C/C1CC1)[C@H](O)Cc1ccccc1
2. C=CC[C@]1(C(=O)NCCCOC)N=C(c2ccc(OCCCO)cc2)O[C@H]1c1ccccc1CN=[N+]=[N-]
3. C=CCNC(=O)[C@H]1[C@@H]2C(=O)O[C@@H](c3ccccc3)[C@@H](c3ccccc3)N2[C@@H](c2ccccc2OCCO)[C@]12C(=O)Nc1ccc(C#CCC(C(=O)OC)C(=O)OC)cc12
4. COc1cc(Br)cc(C(O)C2C=CC3C(=O)N(C)C(=O)C3N2N2CCCCC2)c1OC (stereo not drawn)
5. CC(C)OC(=O)C=C1C[C@@H](c2ccccn2)O[C@@H](c2ccccn2)O1
6. CCS[C@H]1[C@@H](C(=O)O)[C@H](c2ccc(C)cc2)N(S(=O)(=O)c2ccc(C)cc2)[C@@H]1CC

1: 1.02; 2: 1.17; 3: 0.797; 4: 0.787; 5: -0.152; 6: 0.673

// batch mode: one composite z-score value per listed entry
1. COc1ccc([Si](C)(C)[C@@H]2[C@@H](CCO)O[C@]3(C(=O)N(Cc4ccc(N(C=O)c5ccccc5)cc4)c4ccccc43)[C@H]2C)cc1
2. NC(=O)NCC#Cc1ccc2c(c1)[C@]1(C(=O)N2)[C@H](c2ccc(O)cc2)N2[C@H](c3ccccc3)[C@H](c3ccccc3)OC(=O)[C@H]2[C@@H]1C(=O)O

0.724
-0.0693

###

Tested on: XIP peptide (Xip251-270) binding
measurement protocol: small-molecule binders of XIP peptide, primary screen, biochemical, small-molecule microarray, fluorescence 635/667 nm, 0.1 µg/mL protein (AID 1182)
run parameters: fluorescent protein binding, 635 nm, higher = more signal, called active from +8 up or from −8 down
Activity calls are given as the source filed them.
Kindly state composite z-score for each of the entries shown.

List the reported composite z-score of each compound below.
1. O=C1C2C=CC(C(O)CCc3ccccc3)N(Nc3ccccc3F)C2C(=O)N1c1ccccc1 (stereo not given)
2. O=C1O[C@H](c2ccccc2)[C@H](c2ccccc2)N2[C@H]1[C@@H](C(=O)N1CCCCCCC1)[C@]1(C(=O)Nc3ccc(C#CCCO)cc31)[C@H]2c1ccccc1OCCO
3. C=CCNC(=O)[C@@H]1[C@H]2C(=O)O[C@H](c3ccccc3)[C@H](c3ccccc3)N2[C@H](c2ccc(O)cc2)[C@@]12C(=O)N(C(=O)OCCOC)c1ccc(C#CCNC(N)=O)cc12

1: 0.605 (inactive); 2: 9.51 (active); 3: 0.963 (inactive)

Go through the list and state composite z-score for each entry.
1. O=C1OCCC/C=C\[C@H]2OC34C=CCN(Cc5ccccc5)C(=O)[C@H]3N(CCCO)C(=O)[C@@H]4C12 (stereo not given in full)
2. CC(=O)NCCCC[C@@H]1NC(=O)[C@@H]2C[C@H](C(=O)NCCCCCNC(=O)CS)[C@H](c3cccc(OCCO)c3)N2C1=O
3. C[N+](C)(C)CCCCCCNC(=O)[C@@H]1C[C@@H]2C(=O)N[C@@H](Cc3ccccc3)C(=O)N2[C@@H]1c1cccc(OCCO)c1
4. C=C(/C(=C/C[C@H](OC(C)=O)c1ccc(CO)o1)c1cc(C(=O)OC)ccc1OC)C(C)C
5. C=CCOC(=O)[C@H]1[C@@H]2C(=O)O[C@@H](c3ccccc3)[C@@H](c3ccccc3)N2[C@@H](c2ccc(OCCOC(=O)[C@H]3C[C@H]4C(=O)N[C@@H](CCCCN(C)C)C(=O)N4[C@H]3c3ccc(O)cc3)cc2)[C@]12C(=O)Nc1ccc(I)cc12
6. CN(C)CCCC[C@@H]1NC(=O)[C@@H]2C[C@H](C(=O)NCCCCCCN)[C@H](c3cccc(OCCO)c3)N2C1=O
7. CCN(CC)c1ccc(N2CC=CC34O[C@@H]5C=CCCOC(=O)C5[C@H]3C(=O)N(CCCCCCO)[C@@H]4C2=O)cc1 (stereo not given in full)
8. COC(=O)[C@@]1(CCC(=O)OC(C)(C)C)N=C(c2ccc(OCCCO)cc2)O[C@H]1c1ccccc1N=[N+]=[N-]

0.0652 (inactive)
1.84 (inactive)
0.694 (inactive)
-0.508 (inactive)
0.768 (inactive)
1.57 (inactive)
0.0059 (inactive)
1.35 (inactive)

Please give composite z-score for each item listed below.
1. CCCC#C[Si](O[C@H](CC)c1cn(Cc2cccc(Cl)c2)nn1)(C(C)C)C(C)C
2. C=C(C(=O)CC[C@@H](OC(=O)c1cccnc1)c1ccccc1OCCO)C(C)C
3. C[N+](C)(C)CCCCNC(=O)[C@@H]1C[C@@H]2C(=O)N[C@@H](Cc3ccccc3)C(=O)N2[C@@H]1c1cccc(OCCO)c1
4. CC(C)=CCN[C@H](CO)c1ccccc1
5. C=C(CCCC)/C(=C/C[C@@H](OC(C)=O)c1ccc(OCCO)cc1)c1cnc2ccccc2c1
6. O=C1[C@@]23C=C(Br)[C@H](C[C@@H]2CCOC3)[C@@]12CO2

-0.0517 (inactive)
0.79 (inactive)
1.09 (inactive)
-0.0202 (inactive)
0.591 (inactive)
0.792 (inactive)

All values here come from PubChem BioAssay.
